Values compiled from patent US20220227814A1.

Molecular target: ComD2 receptor (Streptococcus pneumoniae)
Assay: cell-based or functional assay
Bridge positions count the residues as written; N and C are the ends. Ends that are not written are not given here.
Measurement label: EC50 (reporter strain)

# annotated cases, reported EC50 (reporter strain) shown
EMRLSKFFRDFILDRKK (lactam 6-14) [CSP1-cyc(K6D14)] : > 1000 nM
EMRLSXFFRDFILQRKK (Dap at position 6; side chain-to-side chain lactam between Dap6 and Asp10) [CSP1-cyc(Dap6D10)] : > 1000 nM
EMRLSXFFREFILQRKK (Orn (ornithine) at position 6; side chain-to-side chain lactam between Orn6 and Glu10) [CSP1-cyc(Orn6E10)] : > 1000 nM

Could you please provide reported EC50 (reporter strain) for EMRLSKFFREFILQRKK (lactam 6-10) [CSP1-cyc(K6E10)] ? Thanks!
> 1000 nM

Could you please provide reported EC50 (reporter strain) for EMRLSXFFREFILQRKK (Dap at position 6; side chain-to-side chain lactam between Dap6 and Glu10) [CSP1-cyc(Dap6E10)] ? Thanks!
13.1 nM

Could you please provide reported EC50 (reporter strain) for EMRLSXFFRDFILQRKK (Orn (ornithine) at position 6; side chain-to-side chain lactam between Orn6 and Asp10) [CSP1-cyc(Orn6D10)] ? Thanks!
> 1000 nM

Could you please provide reported EC50 (reporter strain) for EMRLSKFFDDFILQRKK (lactam 6-9) [CSP1-cyc(K6D9)] ? Thanks!
528 nM
